Target: CIB1 and αIIb interaction (CIB1-GST : F-αIIb peptide) (Homo sapiens, UniProt Q99828)
Construct: made in house; host or cells: BL-21 plus RIL cells (E. coli)
Sequence (Q99828 1-191): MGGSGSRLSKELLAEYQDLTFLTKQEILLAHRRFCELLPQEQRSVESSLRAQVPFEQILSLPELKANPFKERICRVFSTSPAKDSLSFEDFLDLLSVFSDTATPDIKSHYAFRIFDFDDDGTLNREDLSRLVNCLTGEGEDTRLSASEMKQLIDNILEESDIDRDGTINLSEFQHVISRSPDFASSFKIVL
Experiment: FP assay, 1536-well qHTS format (primary and confirmatory screen)
Assay type: binding
Conditions: qHTS primary screen hits, Table S2; negative sign = inhibitory curve
Reported Metric: Curve Class

{"columns": ["Compound", "Curve Class"],
 "data": [
  ["O=C(O)C(F)(F)F.OC(CN1CCCCC1)Cn1c2ccc(Cl)cc2c2cc(Cl)ccc21 (stereo not shown)", -3],
  ["CN1Cc2c(N)cccc2C(c2ccccc2)C1.O=C(O)/C=C\\C(=O)O (stereo not shown)", -2.2],
  ["Cl.O=c1cc(N2CCOCC2)oc2c(-c3ccccc3)cccc12", -2.2],
  ["Nc1nc2c(s1)C(c1ccccc1Cl)CC(O)=N2 (stereo not shown)", -2.4],
  ["CC(C)(C)OC(=O)c1csc(-n2nc(-c3ccc(F)c(F)c3)c(-c3ccccc3)c2O)n1.O=C(O)C(F)(F)F", -2.4]
]}

Sample O=C(O)c1ccccc1Nc1cccc(OCc2ccc3ccccc3n2)c1 — what was its Curve Class?
-2.2

I have this compound here, CCOC(=O)c1c(NC(=O)CN2CCCCC2)sc2c1CCN(C(=O)OCC)C2.O=C(O)C(F)(F)F , and I need its recorded Curve Class.
-2.4

Which Curve Class is listed for NC(=O)c1ccnc2c(O)cccc12.O=C(O)C(F)(F)F ?
-1.2

State the recorded Curve Class for this entry: CC(C)c1ccccc1Cc1cc(C(=O)Nc2ccc(S(=O)(=O)c3ccccc3C(C)(C)C)cc2)c(O)c(O)c1O
-2.4

// query Curve Class value for entry O=C1C(SCCO)=C(SCCO)C(=O)c2ccccc21
-2.2

Name the recorded Curve Class for Nc1c(S(=O)(=O)[O-])cc(Nc2ccc(Nc3nc(Cl)nc(Nc4ccc(S(=O)(=O)O)cc4)n3)c(S(=O)(=O)O)c2)c2c1C(=O)c1ccccc1C2=O.[Na+] .
-1.2

Need Curve Class, item CC(C)c1nc(Nc2nc3ccccc3o2)nc2c1CCCC2.O=C(O)C(F)(F)F
-1.4

Need Curve Class, item CCN1C(=O)c2ccccc2[S+]([O-])c2ccc(C(=O)NCc3cccc(F)c3)cc21 (stereo not shown)
-2.2

Fill in: Curve Class of Oc1cc(Cl)ccc1Oc1ccc(Cl)cc1Cl is ___
-2.4

Record request: Curve Class value, item Nc1nc2[nH]cnc2c(=S)[nH]1
-3

// query Curve Class value for entry Cc1csc(CNc2ncnc3ccc(-c4ccc(CO)o4)cc23)n1.O=C(O)C(F)(F)F
-2.2

###

biological target: CIB1 and αIIb interaction (CIB1-GST : F-αIIb peptide) (Homo sapiens, UniProt Q99828); construct: made in house; host or cells: BL-21 plus RIL cells (E. coli); assay: FP assay, 1536-well qHTS format (primary and confirmatory screen); format: binding; conditions: qHTS primary screen hits, Table S2; negative sign = inhibitory curve; several classes where COUNT > 1
Tick Satisfied if Curve Class is -2 or greater. Tick Not satisfied if Curve Class is less than -2.

Tell me whether Curve Class is at least -2 here: Cc1ccc(S(=O)(=O)Nc2cnccc2C(=O)Nc2nc(-c3cccc(C)c3)cs2)cc1.O=C(O)C(F)(F)F
Not satisfied
